- experimental_target: IDH1R132C (Homo sapiens (Human), UniProt O75874, R132C)
- Sequence (O75874 whole entry R132C): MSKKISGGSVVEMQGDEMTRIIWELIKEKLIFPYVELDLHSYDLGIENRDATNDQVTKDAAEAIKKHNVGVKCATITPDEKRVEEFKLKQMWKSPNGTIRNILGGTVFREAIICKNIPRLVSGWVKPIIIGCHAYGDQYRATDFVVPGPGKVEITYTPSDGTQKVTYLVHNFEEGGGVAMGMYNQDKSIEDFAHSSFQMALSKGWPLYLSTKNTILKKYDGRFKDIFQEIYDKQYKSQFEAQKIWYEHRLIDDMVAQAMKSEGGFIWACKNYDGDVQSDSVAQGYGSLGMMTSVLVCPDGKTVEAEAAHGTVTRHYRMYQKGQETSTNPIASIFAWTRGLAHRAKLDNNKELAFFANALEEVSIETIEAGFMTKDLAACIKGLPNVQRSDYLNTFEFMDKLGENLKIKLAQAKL
- test_method_notes: Inhibitory activity against IDH1R132C enzyme (NADPH detection, WST-8)
- condition_context: 10 nM, residual NADPH detected with WST-8, read-out: Test Example 1 IDH1 R132C IC50
Hi! Could you tag entries with IC50 below 0.1 µM as y, and those at or above as n? Much appreciated.

Find out if reported IC50 for Cc1cn(C(=O)c2c(-c3c(Cl)cc(Cl)cc3Cl)noc2C2(CN(C)C)CCC2)c2cccc(/C=C/C(=O)O)c12 [Example 88] is less than 0.1 µM
n

Find out if reported IC50 for COC1(c2onc(-c3c(Cl)cc(Cl)cc3Cl)c2C(=O)n2ccc3c(/C=C/C(=O)O)cccc32)COC1 [Example 3] is less than 0.1 µM
y

Find out if reported IC50 for CC(C)c1onc(-c2c(Cl)cccc2Cl)c1C(=O)n1ccc2c(/C=C/C(=O)O)cccc21 [Example 23] is less than 0.1 µM
y

Find out if reported IC50 for C=CC(=O)N1CC(OC)(c2onc(-c3c(Cl)cc(Cl)cc3Cl)c2C(=O)n2ccc3c(/C=C/C(=O)O)cccc32)C1 [Example 97] is less than 0.1 µM
n

Find out if reported IC50 for CC1(c2onc(-c3c(Cl)cccc3Cl)c2C(=O)n2ccc3c(/C=C/C(=O)O)cccc32)COC1 [Example 75] is less than 0.1 µM
n

Find out if reported IC50 for NC[C@@H]1CCN(c2onc(-c3c(Cl)cccc3Cl)c2C(=O)n2ccc3c(/C=C/C(=O)O)cccc32)C1 [Example 140] is less than 0.1 µM
n

Find out if reported IC50 for C=CC(=O)N1CCC(c2onc(-c3ccc(Cl)c(F)c3Cl)c2C(=O)n2cc(C)c3c(/C=C/C(=O)O)cccc32)CC1 [Example 129] is less than 0.1 µM
n

Find out if reported IC50 for C=CC(=O)N1C[C@@H](C)N(c2onc(-c3c(Cl)cccc3Cl)c2C(=O)n2ccc3c(/C=C/C(=O)O)cccc32)C2(CC2)C1 [Example 159] is less than 0.1 µM
y

Find out if reported IC50 for Cc1cn(C(=O)c2c(-c3c(Cl)cc(C4CC4)cc3Cl)noc2C(C)(C)F)c2cccc(/C=C/C(=O)O)c12 [Example 70] is less than 0.1 µM
n

Find out if reported IC50 for C=CC(=O)N1CCC(c2onc(-c3c(C)cc(Cl)cc3C)c2C(=O)n2cc(C)c3c(/C=C/C(=O)O)cccc32)CC1 [Example 122] is less than 0.1 µM
y

Find out if reported IC50 for C=CC(=O)N1C[C@@H](C)N(c2onc(-c3c(Cl)cc(Cl)cc3Cl)c2C(=O)n2ccc3c(/C=C/C(=O)O)cccc32)C[C@H]1C [Example 152] is less than 0.1 µM
n

Find out if reported IC50 for C=CC(=O)N1CCC(COC)(c2onc(-c3c(Cl)cc(Cl)cc3Cl)c2C(=O)n2ccc3c(/C=C/C(=O)O)cccc32)CC1 [Example 120] is less than 0.1 µM
n

Measured values drawn from patent US10040791B2 for this set.
